- Tested on: SR
- measurement_protocol: NCI tumour cell line growth inhibition, 48 h
Activity calls are given as the source filed them. No stated cut-off is given here; in the data, active = GI50 up to about 1.1 µM and inactive = higher.
Returns: one label drawn from 1.0 for active, 0.0 for inactive

Study these solved cases before continuing.
>>> category_label("O=C(NC(=S)Nc1ccc([N+](=O)[O-])cc1)c1ccc2c(c1)Sc1ccccc1O2")
0.0
>>> category_label("Fc1ccccc1C1CC(c2ccc3ccccc3c2)=Nc2ccccc2S1 (stereo not given)")
0.0
>>> category_label("CC(C)(C)c1ccc(-c2nc3ccc([N+](=O)[O-])cc3c(=O)o2)cc1")
0.0
>>> category_label("O=[As](O)(O)c1ccc2nc3cc([As](=O)(O)O)ccc3nc2c1")
0.0
>>> category_label("CC(=O)CCCCC(=O)Nc1ccc(CC(NC(=O)OC(C)(C)C)C(=O)NCC(=O)OCc2ccccc2)cc1 (stereo not given)")
0.0
>>> category_label("CC(C)Oc1c(N(Cc2ccccc2)c2ccccc2C2SCCCS2)c(=O)c1=O")
0.0

Data request: Any idea what this test logged for "O=C(Nn1cc(F)c(=O)[nH]c1=O)C12CC3CC(CC(C3)C1)C2" ?
Data returned: 0.0

Data request: Outcome? "O=C(N/C=C1\C(=O)Oc2ccccc2C1=O)NC1CCCCC1"
Data returned: 0.0

Data request: Tell me the assay call for CC(=O)OC1COC(n2c(-c3ccc(Cl)cc3)cc(-c3ccccc3)c(C#N)c2=S)C(OC(C)=O)C1OC(C)=O (stereo not given) please.
Data returned: 0.0

Data request: Test call, this compound: "COc1ccc(C(=O)/C=C/c2ccc(O)c(O)c2F)c(OC)c1"
Data returned: 1.0
